In this section we review reported melting point values for a set of compounds.
Write the answer as a number in °C, unit excluded.

Annotate the compound NS(=O)(=O)c1cccc(-c2noc(-c3cnn4c(C(F)(F)F)cc(-c5ccc(C(F)(F)F)c(OCC(F)(F)F)c5)nc34)n2)c1 with its measured melting point.
250

Annotate the compound Oc1cncc(Oc2ccccc2)c1 with its measured melting point.
107

---

In this section we review reported melting point values for a set of compounds.

The cases that follow already have their melting point on record.
• COCOc1cc(Cl)ccc1-c1cc(-c2cccc(NC(=O)Cn3ccnc3)c2)c(C#N)c(NC(=O)c2ccco2)n1 = 157 to 160 °C
• O=Cc1ccc(-c2ccccc2-c2nnn[nH]2)cc1 = 189 to 190 °C
• Cc1ccc2nc(CCl)nc(Cl)c2c1 = 111 to 112 °C
• Cc1cc(C)c(C(O)c2cccc(-n3ccnc3)c2)c(C)c1 (stereo not given) = 191 to 193 °C
• C#CCOc1cc(O)c2c(c1)OC(C)(C)CC2=O = 122 to 124 °C

Annotate the compound COc1cc(-c2ccc(=O)[nH]n2)ccc1OC(F)F with its measured melting point.
170 °C

Annotate the compound CCN(CC)CCCOc1ccc(-c2cc3ccccc3o2)cc1 with its measured melting point.
86 to 88 °C

Annotate the compound COC(=O)c1cc(NC2CCCCC2)c2cc(Cc3ccc(F)cc3)cnc2c1O with its measured melting point.
75.5 to 77.5 °C

Annotate the compound COc1cc2c(cc1OCc1ccccc1)CCN(C(=O)c1cc(OC)c(OC)c(OC)c1)C2=O with its measured melting point.
195 to 196 °C

Annotate the compound O=C(CCc1cccnc1)NCCCCC1CCN(P(=O)(c2ccccc2)c2ccccc2)CC1 with its measured melting point.
134 to 135 °C

---

In this section we review reported melting point values for a set of compounds.

The cases that follow already have their melting point on record.
- Cc1cnc2c(NC(=O)c3c(Cl)cccc3Cl)ccc(C)c2c1Cl: 236 to 240 °C
- Clc1ccc(-c2cnccn2)cc1Cl: 118 to 119 °C
- CCCCCCCCCCCCCCOc1ccc(C(C)=O)o1: 70 to 72 °C
- CC(=O)Nc1nc(O)c2cc(C=Cc3ccc(C(=O)OC(C)=O)cc3)cnc2n1: > 300 °C

Annotate the compound Cc1cc(Cl)ccc1OCC(=O)Nc1ccc(S(N)(=O)=O)cc1 with its measured melting point.
218 to 220 °C

Annotate the compound CC(O)CN1CCNC1=S (stereo unspecified) with its measured melting point.
101 to 102 °C

Annotate the compound CCn1c(-c2ccc(Cl)c(S(=O)(=O)N(C)C)c2)csc1=Nc1ccccc1C with its measured melting point.
164 to 166 °C

Annotate the compound CS(=O)(=O)c1ccc(-n2cncc2-c2ccc(OC(F)(F)F)cc2)cc1 with its measured melting point.
141 to 142 °C

Annotate the compound COC/C(=C1/SC(=O)NC1=O)c1cccc2ccccc12 with its measured melting point.
133 to 134 °C

Annotate the compound CC(=O)c1cccc2c1ccn2C with its measured melting point.
63 to 64 °C

Annotate the compound Cc1ccc([N+](=O)[O-])cc1S(=O)(=O)N(C)C with its measured melting point.
72 to 74 °C

Annotate the compound CCOC(=O)c1cc2c(C)noc2nc1C(=O)OCC with its measured melting point.
95 to 99 °C

Annotate the compound Fc1ccc(C(CCCN2CCC(c3n[nH]c4ccccc34)CC2)c2ccc(F)cc2)cc1 with its measured melting point.
154 to 156 °C

Annotate the compound OC1(c2cccn2Cc2ccccc2F)CCN(CCc2ccccc2)CC1 with its measured melting point.
130 to 131 °C

Annotate the compound N#CC(S)(CCC(=O)O)C1=NCCc2ccccc21 (stereo unspecified) with its measured melting point.
149 to 150 °C

Annotate the compound CCC/C=C/[C@H]1CC[C@H](c2ccc(C(C)=O)cc2)CC1 with its measured melting point.
51.2 °C

Annotate the compound Nc1nc(-c2ccc(CCNC(=O)C(F)(F)F)cc2)cs1 with its measured melting point.
180 to 182 °C

Annotate the compound Cc1c(C(=O)N[C@H](C)[C@](O)(Cn2cncn2)c2ccc(F)cc2F)cnn1-c1ccc(OC(F)(F)F)cc1 with its measured melting point.
134 to 135 °C

Annotate the compound CC(C)c1cccc(C(C)C)c1NC(=O)CNC(c1ccccn1)c1ccccn1 with its measured melting point.
134 to 135 °C

---

measure: melting point (°C)
Write the answer as a number in °C, unit excluded.

The cases that follow already have their melting point on record.
* O=C(Nc1ccccc1S(=O)(=O)N1CCCCC1)N[C@@H](Cc1ccc(Oc2nccc3ccncc23)cc1)C(=O)O | 159
* CCOC(=O)N1CCC(c2noc(-c3cc(Cl)c(N)c4c3OCC4)n2)CC1 | 162
* O=C1CCCN1c1ccc(CCN2CCN(c3ccccc3Cl)CC2)cc1 | 132
* CCCCN(CCCC)c1ccc2c(c1)O/C(=C1/Oc3cc(N(CCCC)CCCC)ccc3C1=O)C2=O | 216
* CC(=O)C(C)(C)Cc1cc(C(C)(C)C)c(O)c(C(C)(C)C)c1 | 75

Annotate the compound O=c1[nH]c2c(O)cccc2n1CCN1CCN(c2cccc(C(F)(F)F)c2)CC1 with its measured melting point.
110

Annotate the compound CC(Oc1ccc(N)c([N+](=O)[O-])c1)c1cc(F)ccc1Cl (stereo not given) with its measured melting point.
110

Annotate the compound C#CCN1CCCc2ccc(OC(=O)Nc3ccccc3Br)cc21 with its measured melting point.
105

---

measure: melting point

The cases that follow already have their melting point on record.
• CCOC(=O)C1C(C)=NC(N2CCCC2)=C(C(=O)OC(C)C)C1c1ccccc1C(F)(F)F (stereo not given) = 102 °C
• O=C(CCCCCCc1ccccc1)Oc1cc(=O)n(-c2ccccc2)c2ncccc12 = 139 to 140 °C
• Cc1c(C)c(N2Cc3cc(Cl)c(Cl)cc3C2)c(C)c2c1OC(C)(C)C2c1ccccc1 (stereo not given) = 194 to 196 °C
• CSC1CCC2C3CCC4=CC(=O)C=CC4(C)C3(F)C(OC(C)=O)CC12C (stereo not given) = 169 to 170 °C

Then this molecule:
Annotate the molecule CC(C)(C)OC(=O)NCCC(=O)NC(CC(=O)OCc1ccccc1)c1ccccc1 (stereo not given) with its measured melting point.
124 to 126 °C

---

In this section we review reported melting point values for a set of molecules.

- CCOC(=O)C1C(=O)C=C(OC(C)OCC)CC1c1ccc(C)cc1 (stereo not given): 59 to 60 °C
- CCc1nc(CCc2ccc(NC(=O)/C=C/c3cnn(C)c3-c3ccc(F)cc3)cc2)cs1: 190 to 191 °C
- O=C(O)C1CCC2C(=O)OC(=O)C2C1 (stereo not given): 250 °C
- Cc1ccc(NC(=O)c2cccnc2Oc2cccc(Cl)c2)cc1: 140 to 143 °C
- COC(=O)c1cccc(-c2nc(COc3ccc(CON4CC(C=O)=CN4c4ccccc4)cc3OC)c(C)o2)c1: 164 to 165 °C
- CCC(=O)N(C(=O)CC)c1cc(-c2c(-c3cccc(C)c3)nc3cccnn23)ccn1: 210 to 211 °C

Annotate the molecule COc1ccc(N2CCOCC2)c2sc(-c3nc4ccc(N(C)CC5CCOCC5)nc4[nH]3)nc12 with its measured melting point.
190 to 195 °C

Annotate the molecule N#CCNC(=O)C1(NC(=O)c2ccc(Cn3ccnc3)cc2)CCCCC1 with its measured melting point.
194 to 196 °C

Annotate the molecule Fc1c(Br)ccc2c1OC(c1ccccc1)(c1ccccc1)O2 with its measured melting point.
61.5 to 63 °C

Annotate the molecule C=CCn1cc(-c2ccccc2)c(=O)c(-c2ccccc2)c1 with its measured melting point.
174 °C

---

measure: melting point

The cases that follow already have their melting point on record.
• Cc1c(Cl)c(C=O)c(C)c2c1CC(C)(C)C2 = 127 °C
• COCc1nc(-c2ccc(C(F)(F)F)cc2)ncc1COc1ccc(OC(C)(C)C(=O)O)c(C)c1 = 120 to 121 °C
• COCC(=O)Nc1cc(C(N)=O)cc(NC(=O)COC)c1Cl = 208 to 209 °C
• CCc1coc(Cc2ccc(NC(=O)/C=C/c3cnn(C)c3-c3ccc(F)cc3)cc2)n1 = 174 to 175 °C

Annotate the compound O=S(CCCCCCOc1ccc(C2=C(c3ccccc3)CCCc3cc(O)ccc32)cc1)CCCC(F)(F)C(F)(F)F (stereo not given) with its measured melting point.
121 °C

Annotate the compound CCC1(CC)C(=O)N(C(C)(C)C)CC(C)(C)N1C(C)c1ccc(OC(C)=O)cc1 (stereo not given) with its measured melting point.
92 to 96 °C

Annotate the compound NS(=O)(=O)c1ccc2[nH]cc(CCN3C(=O)c4ccccc4C3=O)c2c1 with its measured melting point.
285 to 290 °C

---

In this section we review reported melting point values for a set of compounds.

The cases that follow already have their melting point on record.
- CSc1ccc(-c2coc3ccc(-c4nnc(C)o4)cc23)c(Cl)c1: 153 to 154 °C
- Cc1c(NC(=O)c2cccc(OCc3ccccc3)c2)ccc2cc(CN3CCCC3)cnc12: 148 to 149 °C
- Cc1cc2c(cc1O)C(C)(C)CC1(CC(C)(C)c3cc(OCCCO)c(C)cc3O1)O2 (stereo unspecified): 175 to 177 °C

Annotate the compound Cc1ccc(C(=O)OC(C)c2nc3c(c(=O)n(C)c(=O)n3C)n2C)cn1 (stereo unspecified) with its measured melting point.
165 to 180 °C

Annotate the compound NC(=O)CC[C@@H](CF)NC(=O)OCc1ccccc1 with its measured melting point.
154 to 157 °C

Annotate the compound O=C1NC(=O)C(c2ccc(Cl)o2)O1 (stereo unspecified) with its measured melting point.
112 to 114 °C

Annotate the compound CC1CC2C(=C(Cl)C=CC2(F)n2[nH]c3c(c2=O)CCCC3)O1 (stereo unspecified) with its measured melting point.
240 to 242 °C

Annotate the compound CCOC(=O)/C=C/C1N(C(C)C)C(=O)c2ccccc2C1(O)c1ccc(F)cc1OC (stereo unspecified) with its measured melting point.
178 to 179 °C

Annotate the compound O=C1OC(CN2CCC(O)(c3ccc(F)cc3)CC2)CN1c1ccc(F)cc1 (stereo unspecified) with its measured melting point.
145 to 147 °C

Annotate the compound CCCC(=O)c1cnc2cc(Nc3ccc(O)cc3C)sc2c1 with its measured melting point.
228 to 230 °C

Annotate the compound CCOC(=O)c1cccc(NC(=O)N2CCC(CNC[C@H](O)COc3cccc4[nH]c5ccccc5c34)CC2)c1 with its measured melting point.
160 °C

Annotate the compound CCOC(=O)N1CC1C(N)=O (stereo unspecified) with its measured melting point.
125 to 128 °C

Annotate the compound COCCNc1ccc2ncnc(Nc3ccc(F)cc3F)c2c1 with its measured melting point.
175 to 176 °C

Annotate the compound CNC(=O)n1nc(Oc2ccc([N+](=O)[O-])cc2C(F)(F)F)cc1C with its measured melting point.
142 to 144 °C
